Origin of the recorded values: patent US8921306B2

Test Protocol: Serum stability in normal human serum
Assay type: in vitro ADME
Condition Description: 37° C., LCMS, read-out: half-life (t1/2) in normal human serum
Item-by-item account of half-life

# count of solved cases: 2
Compound	half-life
C[C@@H]1NC(=O)[C@@H](NC(=O)[C@H](CCCCN)NC(=O)[C@H](CCCN=C(N)N)NC(=O)[C@@H]2CC(=O)NCCCC[C@H](NC(=O)CNC(=O)[C@@H](NC(=O)[C@H](Cc3ccccc3)NC(=O)CNC(=O)CNC(=O)[C@@H](N)Cc3ccccc3)[C@@H](C)O)C(=O)N[C@@H](CCCN=C(N)N)C(=O)N[C@@H](CCCCN)C(=O)N[C@@H](CO)C(=O)N2)CCCCNC(=O)C[C@@H](C(N)=O)NC(=O)[C@H](CCC(N)=O)NC(=O)[C@H](CC(N)=O)NC1=O [SEQ ID NO:7, H-FGGFTG[KRKSD]RK[KANQD]-NH2]	> 6 h
C[C@@H](O)[C@H](NC(=O)[C@H](Cc1ccc(F)cc1)NC(=O)CNC(=O)CNC(=O)[C@@H](N)Cc1ccccc1)C(=O)NCC(=O)N[C@H]1CCCCNC(=O)C[C@@H](C(=O)N[C@@H](CCCN=C(N)N)C(=O)N[C@@H](CCCCN)C(=O)N[C@H]2CCCCNC(=O)C[C@@H](C(N)=O)NC(=O)[C@H](CCC(N)=O)NC(=O)[C@H](CC(N)=O)NC(=O)[C@H](CCCCN)NC2=O)NC(=O)[C@H](CO)NC(=O)[C@H](CCCCN)NC(=O)[C@H](CCCN=C(N)N)NC1=O [SEQ ID NO:8, H-FGGF(4-F)TG[KRKSD]RK[KKNQD]-NH2]	> 6 h

Consider the record given below.
Please report the recorded half-life for CC(C)C[C@H](NC(=O)[C@H](CCCCN)NC(=O)[C@H](CCCN=C(N)N)NC(=O)[C@H](C)NC(=O)[C@H](CO)NC(=O)[C@H](CCCCN)NC(=O)[C@H](CCCN=C(N)N)NC(=O)[C@H](C)NC(=O)CNC(=O)[C@@H](NC(=O)[C@H](Cc1ccccc1)NC(=O)CNC(=O)CNC(=O)[C@@H](N)Cc1ccccc1)[C@@H](C)O)C(=O)N[C@@H](C)C(=O)N[C@@H](CC(N)=O)C(=O)N[C@@H](CCC(N)=O)C(=O)O [SEQ ID NO:1, reference compound] . ≤ 1 h
